Reported TGI values for a set of compounds
tested on: NCI-H460 lung; test: NCI tumour cell line growth inhibition, 48 h

compound: CSC(=NC(=O)c1ccccc1)SCCSC(=NC(=O)c1ccccc1)SC
TGI: > 100 µM
--
compound: Cc1cc(C(=O)CC(Cl)=C(Cl)Cl)c(Cl)cc1Cl
TGI: 90.6 µM
--
compound: CN(C)C[C@@H]1CCn2cc(c3ccccc32)C2=C(C(=O)NC2=O)c2cn(c3ccccc23)CCO1
TGI: 5.73 µM
--
compound: CN(C)C1(N(C)C)Oc2c(c(=O)n(C)c(=O)n2C)C(c2ccc(F)cc2)C1(F)F (centres undefined)
TGI: > 100 µM
--
compound: Oc1c(Cl)c(Cl)c(O)c(-c2cnc(-c3ncc(-c4c(O)c(Cl)c(Cl)c(O)c4Cl)s3)s2)c1Cl
TGI: > 100 µM
--
compound: CC1=C(C(=O)NNC(=O)c2ccccc2O)CC(C(=O)NNC(=O)c2ccccc2O)=C(C)N1
TGI: > 100 µM
--
compound: Cc1ccc2c(c1)C(=O)/C(=C/c1cccc(OCC(=O)c3ccc(Cl)cc3)c1)CS2
TGI: > 100 µM
--
compound: COc1ccccc1NC(=O)C(=O)C(c1cnc2ccc([N+](=O)[O-])cc2n1)[N+](=O)[O-] (centres undefined)
TGI: > 100 µM
--
compound: CCCc1nn(C)c(CCC(=O)N(Cc2ccccc2)Cc2ccccc2)c1CC
TGI: > 100 µM
--
compound: O=C(CS(=O)c1nc2ccccc2nc1-c1ccccc1)Nc1ccc(Cl)cc1 (centres undefined)
TGI: 47.7 µM
--
compound: CCOC(OCC)[C@@H]1C[C@@H]2N(O[C@H](OC3CCCC3(c3ccccc3)c3ccccc3)[C@H](OC(C)=O)[C@@]2(CC)Cc2ccc(OC)c(OC)c2)O1 (some centres undefined)
TGI: > 100 µM
--
compound: O=C1/C=C/[C@@H](O)[C@@H]2C[C@@H](O)C[C@H]2/C=C/CCC[C@H](CCc2ccc(NC(=S)Nc3ccc4c(c3)C(=O)OC43c4ccc(O)cc4Oc4cc(O)ccc43)cc2)O1
TGI: > 100 µM
--
compound: O=C(CCN1CCCC1)Nc1ccc2c(Nc3ccc(Br)cc3)c3ccccc3nc2c1
TGI: 1.55 µM
--
compound: O=C1CS(=O)c2ccccc2N1 (centres undefined)
TGI: > 100 µM
--
compound: O=C1c2c(c3c4ccccc4n(CCCCCCN4CCOCC4)c3c3[nH]c4ccccc4c23)C(=O)N1O
TGI: 3.66 µM
--
compound: Nc1nc(N)c2c(-c3ccccc3)ccnc2n1
TGI: > 100 µM
--
compound: O=C(CC1(O)C(=O)Nc2c(Cl)cc(Cl)cc21)c1ccc([N+](=O)[O-])cc1 (centres undefined)
TGI: > 100 µM
--
compound: CC(=O)OC1CC2C(=O)CC1(C)C2(C)C (centres undefined)
TGI: > 100 µM
--
compound: C=C(C)C1CC=C(C)C(O)([C@@]2(O)C[C@H](C(=C)C)CC=C2C)C1 (some centres undefined)
TGI: 34.6 µM
